- Method Notes: AUC in dog at 2 mg/kg, po
- Assay type: ADME, organism-based, Canis lupus familiaris
- Assay Setup: in vivo
Assay Metric: AUC (µM·h)
Kindly provide the numeric value in µM·h only, without the unit symbol.

Prompt: Entry under review: COc1cc(-c2cccc(F)c2)c(F)cc1-n1c(=O)ccc2cc(S(=O)(=O)Nc3ccon3)ccc21 (atropisomer P) . Reported AUC?
Response: 600

###

Answer each item with its documented clearance.
- Method Notes: Clearance in dog at […], iv; note: dose 0.25 mg/kg
- Format: ADME, organism-based, Canis lupus familiaris
- Assay Setup: in vivo
Kindly provide the numeric value in mL/min/kg only, without the unit symbol.

Prompt: Entry under review: COc1cc(-c2cccc(C(F)(F)F)c2)ccc1-n1c(=O)ccc2cc(S(=O)(=O)Nc3ncccn3)ccc21 . Reported clearance?
Response: 0.167

Prompt: Entry under review: COc1cc(-c2ccc(F)c(C)c2)c(F)cc1-n1c(=O)ccc2cc(S(=O)(=O)Nc3ccon3)ccc21 . Reported clearance?
Response: 0.283

Prompt: Entry under review: COc1cc(-c2cccc(OC(F)F)c2)c(F)cc1-n1c(=O)ccc2cc(S(=O)(=O)Nc3ccon3)ccc21 . Reported clearance?
Response: 0.3

Prompt: Entry under review: COc1cc(-c2cc(OC)c(-n3c(=O)ccc4cc(S(=O)(=O)Nc5ncccn5)ccc43)cc2F)ccc1Cl . Reported clearance?
Response: 0.583

###

- Test system: Rattus norvegicus
- Method Notes: Unbound clearance in rat at 0.5 mg/kg, iv
- Type: ADME, organism-based
- Assay Setup: in vivo
Strictly below 2000 mL/min/kg in CL free: YES. Otherwise: NO.

Prompt: I'd appreciate it if you could check whether COc1cc(-c2ccc(F)c(C)c2)c(F)cc1-n1c(=O)ccc2cc(S(=O)(=O)Nc3ccon3)ccc21 has CL free smaller than 2000 mL/min/kg.
Response: YES

Prompt: I'd appreciate it if you could check whether COc1cc(-c2cccc(C(F)(F)F)c2)ccc1-n1c(=O)ccc2cc(S(=O)(=O)Nc3ncccn3)ccc21 has CL free smaller than 2000 mL/min/kg.
Response: YES

Prompt: I'd appreciate it if you could check whether COc1cc(-c2cccc(F)c2)c(F)cc1-n1c(=O)ccc2cc(S(=O)(=O)Nc3ccon3)ccc21 (atropisomer P) has CL free smaller than 2000 mL/min/kg.
Response: YES

Prompt: I'd appreciate it if you could check whether COc1cc(-c2cc(OC)c(-n3c(=O)ccc4cc(S(=O)(=O)Nc5ncccn5)ccc43)cc2F)ccc1Cl has CL free smaller than 2000 mL/min/kg.
Response: YES

Prompt: I'd appreciate it if you could check whether COc1cc(-c2cccc(OC(F)F)c2)c(F)cc1-n1c(=O)ccc2cc(S(=O)(=O)Nc3ccon3)ccc21 has CL free smaller than 2000 mL/min/kg.
Response: NO

Prompt: I'd appreciate it if you could check whether COc1cc(C(F)(F)F)ccc1N1CCOc2cc(S(=O)(=O)Nc3nccs3)ccc21 has CL free smaller than 2000 mL/min/kg.
Response: YES

###

- Method Notes: Intrinsic clearance in human liver microsomes at 1 uM after 40 mins by LC-MS/MS assay
- Assay type: ADME, microsome
- Assay Setup: read-out: CLH
Assay Metric: microsomal CLint at 1 µM (µL/min/mg)
Kindly provide the numeric value in µL/min/mg only, without the unit symbol.

Prompt: Entry under review: COc1cc(-c2ccc(F)c(C)c2)c(F)cc1-n1c(=O)ccc2cc(S(=O)(=O)Nc3ccon3)ccc21 . Reported microsomal CLint at 1 µM?
Response: 5

Prompt: Entry under review: COc1cc(-c2cccc(C(F)(F)F)c2)ccc1-n1c(=O)ccc2cc(S(=O)(=O)Nc3ncccn3)ccc21 . Reported microsomal CLint at 1 µM?
Response: 5
